# MEASUREMENT_TARGET: COX-2 (Homo sapiens)
# Sequence (P35354 18-604): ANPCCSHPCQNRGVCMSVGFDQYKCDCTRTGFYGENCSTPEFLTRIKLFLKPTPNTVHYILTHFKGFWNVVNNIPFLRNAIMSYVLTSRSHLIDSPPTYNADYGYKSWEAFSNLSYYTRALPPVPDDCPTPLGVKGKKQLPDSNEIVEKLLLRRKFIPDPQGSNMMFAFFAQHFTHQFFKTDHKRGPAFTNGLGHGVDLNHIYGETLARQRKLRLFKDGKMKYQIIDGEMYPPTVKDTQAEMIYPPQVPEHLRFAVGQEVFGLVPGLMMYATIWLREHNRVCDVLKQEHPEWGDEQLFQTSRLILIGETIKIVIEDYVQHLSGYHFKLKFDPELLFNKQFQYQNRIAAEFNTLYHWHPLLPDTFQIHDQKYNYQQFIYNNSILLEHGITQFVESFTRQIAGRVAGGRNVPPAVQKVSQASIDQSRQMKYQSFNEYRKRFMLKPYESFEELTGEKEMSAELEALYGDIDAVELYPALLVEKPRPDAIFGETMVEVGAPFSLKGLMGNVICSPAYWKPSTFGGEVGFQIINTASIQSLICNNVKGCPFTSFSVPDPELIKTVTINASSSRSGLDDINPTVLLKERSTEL
ASSAY_READOUT: IC50 (µM)

(I) COc1ccc(-n2nc(CCC(=O)N(C)O)cc2-c2ccc(Cl)cc2)cc1
(II) CC(C(=O)O)c1ccc(C(=O)c2cccs2)cc1 (stereo not drawn)
(III) Cc1ccc(C(=O)c2ccc(CC(=O)O)n2C)cc1
Asked: Sort the 3 compounds by IC50; largest first, smallest last. List each label, following the requested order.
Given back: I, II, III
